# TEST_NAME: basal HepG2 mitochondrial membrane potential changes, profiling panel, cell-based, JC-1 fluorescence, 24 h, 100 nL compound (AID 1167); further: test concentration not given here
# STATED_CONDITIONS: higher = more signal
MEASURED_PROPERTY: z-score

{"MOLECULE": "C=C(C(=O)CC[C@@H](OC(=O)c1ccccc1-c1ccccc1C(=O)O)c1ccc(OCCO)cc1)C(C)C", "MEASURED_PROPERTY": "z-score", "REPORTED_MEASUREMENT": -0.556}
{"MOLECULE": "CC(C)c1ccc(NN2C(C(O)C(C)c3ccccc3)C=CC3C(=O)N(c4ccccc4)C(=O)C32)cc1 (stereo not drawn)", "MEASURED_PROPERTY": "z-score", "REPORTED_MEASUREMENT": -2.13}
{"MOLECULE": "O=C1O[C@H](c2ccccc2)[C@H](c2ccccc2)N2[C@H]1[C@@H](C(=O)O)[C@]1(C(=O)Nc3ccccc31)[C@H]2c1ccc(OCCO)cc1", "MEASURED_PROPERTY": "z-score", "REPORTED_MEASUREMENT": -0.706}
{"MOLECULE": "COC(=O)C(CC#Cc1ccc2c(c1)[C@]1(C(=O)N2)[C@H](C(=O)N2CCCCCCC2)[C@H]2C(=O)O[C@H](c3ccccc3)[C@H](c3ccccc3)N2[C@@H]1c1ccc(OCCO)cc1)C(=O)OC", "MEASURED_PROPERTY": "z-score", "REPORTED_MEASUREMENT": -0.738}
{"MOLECULE": "O=C(CS)NCCCCCCNC(=O)[C@H]1C[C@H]2C(=O)NCC(=O)N2[C@H]1c1cccc(OCCO)c1", "MEASURED_PROPERTY": "z-score", "REPORTED_MEASUREMENT": -0.407}

z-score measured on COC(=O)C[C@H]1O[C@]2(C(=O)N(C)c3ccccc32)[C@@H](C)[C@@H]1[Si](C)(C)c1ccccc1 = -0.57

// field: z-score; key: C=CCNC(=O)[C@@H]1[C@H]2C(=O)O[C@H](c3ccccc3)[C@H](c3ccccc3)N2[C@H](c2ccc(OCCO)cc2)[C@@]12C(=O)Nc1ccc(C#CCNC(N)=O)cc12 ; value = -0.921

Data point: COC(=O)C1=CC(CCCO)=CC(c2ccc(CN3CCCC3)cc2)N(C)C=C1C(=O)OC (stereo not drawn) ; z-score = 0.91

The measured z-score associated with COC(=O)c1c2oc(c1C(=O)OC)C(=O)N[C@H](Cc1ccccc1)Cn1cc(nn1)C1(CCCCC1)NC(=O)N[C@H](CO)CC2 reads 0.381

Short answer for [N-]=[N+]=Nc1ccccc1C[C@@]1(C(=O)NCC(O)CO)N=C(c2ccc(OCCCO)cc2)O[C@@H]1c1ccccc1N=[N+]=[N-] (stereo partly drawn) : z-score was -2

Please fill in: z-score reported for CC(C)C[C@@H]1NC(=O)[C@@H]2C[C@H](C(=O)NCCCCCNC(=O)CS)[C@H](c3ccc(O)cc3)N2C1=O = -0.63

# molecule COCCOC(=O)N1C(=O)[C@@]2(c3cc(C#CC4(O)CCCCCC4)ccc31)[C@H](C(N)=O)[C@H]1C(=O)O[C@H](c3ccccc3)[C@H](c3ccccc3)N1[C@@H]2c1ccc(OCCO)cc1 ; its z-score = -1.97

C=CCNC(=O)[C@H]1[C@@H]2C(=O)O[C@@H](c3ccccc3)[C@@H](c3ccccc3)N2[C@@H](c2ccc(OCCO)cc2)[C@]12C(=O)N(C(=O)OCCOC)c1ccc(C#CCC(C(=O)OC)C(=O)OC)cc12 has a reported z-score of -0.517

These data points were gathered from PubChem BioAssay.
